# assay_target: CA XII (Homo sapiens, UniProt O43570)
# Construct: made in house
# Sequence (O43570 30-289 limits assumed): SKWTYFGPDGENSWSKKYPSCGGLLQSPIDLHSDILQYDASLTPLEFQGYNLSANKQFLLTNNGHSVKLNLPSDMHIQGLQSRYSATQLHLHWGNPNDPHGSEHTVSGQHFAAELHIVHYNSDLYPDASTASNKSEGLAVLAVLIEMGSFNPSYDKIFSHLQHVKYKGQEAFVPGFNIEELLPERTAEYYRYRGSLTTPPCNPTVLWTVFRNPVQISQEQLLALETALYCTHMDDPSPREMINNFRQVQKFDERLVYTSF
# protocol_details: Isothermal titration calorimetry (ITC), CA XII
# Format: binding
# conditions: pH 7.0, 37 °C, read-out: Kd for CA XII by isothermal titration calorimetry (values in the brackets)
measured_endpoint: pKd
For clarity, pKd is expressed as the negative log10 of concentration in mol/L.

Task item: Tell me pKd reported for NS(=O)(=O)c1ccc(/N=N/N2CCCCCC2)cc1
Reply: 6.66

---

What Kd was measured for each of the following?
# assay_target: CA VII (Homo sapiens, UniProt P43166)
# Construct: made in house
# Sequence (P43166 whole entry): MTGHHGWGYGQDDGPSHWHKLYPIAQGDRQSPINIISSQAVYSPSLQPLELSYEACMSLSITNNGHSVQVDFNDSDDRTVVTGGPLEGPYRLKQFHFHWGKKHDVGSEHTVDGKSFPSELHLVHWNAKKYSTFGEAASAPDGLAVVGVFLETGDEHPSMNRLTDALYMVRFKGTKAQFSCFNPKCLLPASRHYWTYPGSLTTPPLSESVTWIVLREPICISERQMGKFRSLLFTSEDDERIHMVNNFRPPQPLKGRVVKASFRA
# protocol_details: Fluorescent thermal shift assay (FTSA), CA VII
# Type: binding
Report only the number, with the unit µM understood.

Task item: Check CA VII (Homo sapiens, UniProt P43166) data and give Kd for Nc1ccc(S(N)(=O)=O)cc1 [Compound 1, 4-Aminobenzene-1-sulfonamide, reference compound] .
Reply: 50

Task item: Check CA VII (Homo sapiens, UniProt P43166) data and give Kd for NS(=O)(=O)c1ccc(/N=N/N2CCCCCC2)cc1 .
Reply: 0.125

Task item: Check CA VII (Homo sapiens, UniProt P43166) data and give Kd for COC(=O)CCNc1ccc(S(N)(=O)=O)cc1 .
Reply: 35.7

---

# assay_target: CA I (Homo sapiens)
# Construct: made in house
# Sequence (P00915 whole entry): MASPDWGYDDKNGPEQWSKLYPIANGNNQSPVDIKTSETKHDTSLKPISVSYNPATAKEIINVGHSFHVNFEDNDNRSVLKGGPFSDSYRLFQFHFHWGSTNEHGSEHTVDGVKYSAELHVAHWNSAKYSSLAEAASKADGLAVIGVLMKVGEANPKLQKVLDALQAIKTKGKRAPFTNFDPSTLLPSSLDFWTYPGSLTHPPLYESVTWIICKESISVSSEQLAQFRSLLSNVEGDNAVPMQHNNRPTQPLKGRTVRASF
# protocol_details: Isothermal titration calorimetry (ITC), CA I
# Type: binding
measured_endpoint: pKd
For clarity, pKd is expressed as the negative log10 of concentration in mol/L.

Task item: Check CA I (Homo sapiens) data and give pKd for NS(=O)(=O)c1ccc(/N=N/N2CCCCCC2)cc1 [Compound 31] .
Reply: 7.66

---

# assay_target: CA XIII (Homo sapiens, UniProt Q8N1Q1)
# Construct: made in house
# Sequence (Q8N1Q1 whole entry): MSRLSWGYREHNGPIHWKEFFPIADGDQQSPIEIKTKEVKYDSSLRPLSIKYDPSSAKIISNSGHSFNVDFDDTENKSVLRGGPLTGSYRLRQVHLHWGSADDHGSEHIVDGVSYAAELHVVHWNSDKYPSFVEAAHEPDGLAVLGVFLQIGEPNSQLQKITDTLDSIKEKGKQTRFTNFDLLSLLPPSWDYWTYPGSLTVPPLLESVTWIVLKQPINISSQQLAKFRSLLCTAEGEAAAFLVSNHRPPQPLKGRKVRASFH
# protocol_details: Fluorescent thermal shift assay (FTSA), CA XIII
# Format: binding
# conditions: FTSA, pH 7.0, 37 °C; read-out: Compound Dissociation Constants Kd for CA XIII
What pKd was measured for each of the following?
For clarity, pKd is expressed as the negative log10 of concentration in mol/L.

Task item: Tell me pKd reported for CC(=NNC(=O)CCNc1ccc(S(N)(=O)=O)cc1)c1ccccc1
Reply: 5.25

Task item: Tell me pKd reported for NS(=O)(=O)c1ccc(NCCC(=O)NN=C(c2ccccc2)c2ccccc2)cc1
Reply: 5.36

Task item: Tell me pKd reported for Nc1nnc(CCNc2ccc(S(N)(=O)=O)cc2)s1
Reply: 4.08

Task item: Tell me pKd reported for NS(=O)(=O)c1ccc(NCCc2n[nH]c(=S)n2-c2ccccc2)cc1
Reply: 5.00

Task item: Tell me pKd reported for NS(=O)(=O)c1ccc(NCCC(=O)NN=Cc2ccc([N+](=O)[O-])cc2)cc1
Reply: 4.30

Task item: Tell me pKd reported for Cc1ccc(C)n1NC(=O)CCNc1ccc(S(N)(=O)=O)cc1
Reply: 5.20

Task item: Tell me pKd reported for CN(C)c1ccc(/C=N/NC(=O)CCNc2ccc(S(N)(=O)=O)cc2)cc1
Reply: 4.25

Task item: Tell me pKd reported for NS(=O)(=O)c1ccc(NCCC(=O)NN=Cc2ccc(Cl)cc2)cc1
Reply: 5.08

Task item: Tell me pKd reported for CN(C)/N=N/c1ccc(S(N)(=O)=O)cc1
Reply: 6.40

---

What melting point was measured for each of the following?

Task item: Tell me melting point reported for NS(=O)(=O)c1ccc(NCCC(=O)N/N=C/c2ccc(Br)cc2)cc1 [Compound 14]
Reply: 218 to 219 °C

Task item: Tell me melting point reported for NS(=O)(=O)c1ccc(NCCC(=O)NN=Cc2ccc(Cl)cc2)cc1 [Compound 15]
Reply: 226 to 227 °C

Task item: Tell me melting point reported for CN(C)c1ccc(/C=N/NC(=O)CCNc2ccc(S(N)(=O)=O)cc2)cc1 [Compound 16]
Reply: 179 to 180.5 °C

---

# assay_target: CA II (Homo sapiens, UniProt P00918)
# Construct: made in house
# protocol_details: Fluorescent thermal shift assay (FTSA), CA II
# Assay type: binding
# conditions: pH 7.0, 37 °C, read-out: Compound Dissociation Constants Kd for CA II
What Kd was measured for each of the following?
Report only the number, with the unit nM understood.

Task item: Tell me Kd reported for CCSc1nnc(CCNc2ccc(S(N)(=O)=O)cc2)o1
Reply: 1180

Task item: Tell me Kd reported for NS(=O)(=O)c1ccc(/N=N/SCCO)cc1
Reply: 66.7

Task item: Tell me Kd reported for Nc1nnc(CCNc2ccc(S(N)(=O)=O)cc2)s1
Reply: 20000

Task item: Tell me Kd reported for CCN(CC)/N=N/c1ccc(S(N)(=O)=O)cc1
Reply: 71.4

Task item: Tell me Kd reported for NNC(=O)CCNc1ccc(S(N)(=O)=O)cc1
Reply: 10500

Task item: Tell me Kd reported for NS(=O)(=O)c1ccc(NCCc2n[nH]c(=S)n2-c2ccccc2)cc1
Reply: 2000

Task item: Tell me Kd reported for NS(=O)(=O)c1ccc(/N=N/N2CCCC2)cc1
Reply: 133

---

# assay_target: CA XII (Homo sapiens, UniProt O43570)
# Construct: made in house
# protocol_details: Fluorescent thermal shift assay (FTSA), CA XII
# Format: binding
# conditions: FTSA, pH 7.0, 37 °C; read-out: Compound Dissociation Constants Kd for CA XII
What pKd was measured for each of the following?
For clarity, pKd is expressed as the negative log10 of concentration in mol/L.

Task item: Tell me pKd reported for NCCS/N=N/c1ccc(S(N)(=O)=O)cc1
Reply: 5.20

Task item: Tell me pKd reported for NS(=O)(=O)c1ccc(NCCC(=O)NN=Cc2ccc(Cl)cc2)cc1
Reply: 4.48

Task item: Tell me pKd reported for NS(=O)(=O)c1ccc(/N=N/SCCO)cc1
Reply: 5.70

Task item: Tell me pKd reported for CCSc1nnc(CCNc2ccc(S(N)(=O)=O)cc2)o1
Reply: 4.98

Task item: Tell me pKd reported for COC(=O)CCNc1ccc(S(N)(=O)=O)cc1
Reply: 4.48

Task item: Tell me pKd reported for NS(=O)(=O)c1ccc(/N=N/N2CCOCC2)cc1
Reply: 5.48

Task item: Tell me pKd reported for NS(=O)(=O)c1ccc(NCCc2n[nH]c(=S)n2-c2ccccc2)cc1
Reply: 5.18

---

What Kd was measured for each of the following?
# assay_target: CA VI (Homo sapiens, UniProt P23280)
# Construct: made in house
# Sequence (P23280 18-308): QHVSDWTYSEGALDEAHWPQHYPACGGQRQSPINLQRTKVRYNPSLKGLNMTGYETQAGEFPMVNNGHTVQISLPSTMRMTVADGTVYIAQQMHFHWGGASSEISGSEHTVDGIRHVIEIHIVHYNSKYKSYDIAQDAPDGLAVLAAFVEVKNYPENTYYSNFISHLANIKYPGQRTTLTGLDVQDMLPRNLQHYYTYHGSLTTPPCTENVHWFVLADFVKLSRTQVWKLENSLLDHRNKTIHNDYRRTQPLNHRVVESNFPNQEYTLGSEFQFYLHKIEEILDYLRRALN
# protocol_details: Fluorescent thermal shift assay (FTSA), CA VI
# Type: binding
# conditions: FTSA, pH 7.0, 37 °C; read-out: Compound Dissociation Constants Kd for CA VI
Report only the number, with the unit µM understood.

Task item: Tell me Kd reported for NCCS/N=N/c1ccc(S(N)(=O)=O)cc1 [Compound 33]
Reply: 8.3

Task item: Tell me Kd reported for NS(=O)(=O)c1ccc(N2CCC(=O)NC2=S)cc1 [Compound 6]
Reply: 8.3

Task item: Tell me Kd reported for CN(C)/N=N/c1ccc(S(N)(=O)=O)cc1 [Compound 26]
Reply: 13.3

---

# assay_target: CA VII (Homo sapiens, UniProt P43166)
# Construct: made in house
# protocol_details: Fluorescent thermal shift assay (FTSA), CA VII
# Assay type: binding
# conditions: FTSA, pH 7.0, 37 °C; read-out: Compound Dissociation Constants Kd for CA VII
measured_endpoint: pKd
For clarity, pKd is expressed as the negative log10 of concentration in mol/L.

Task item: Tell me pKd reported for NS(=O)(=O)c1ccc(NCCC(=O)NN=Cc2ccc(Cl)cc2)cc1
Reply: 4.90

Task item: Tell me pKd reported for NS(=O)(=O)c1ccc(NCCC(=O)NNC(=O)Nc2ccccc2)cc1
Reply: 4.90

Task item: Tell me pKd reported for NS(=O)(=O)c1ccc(N2CCC(=O)NC2=O)cc1
Reply: 5.81

Task item: Tell me pKd reported for NS(=O)(=O)c1ccc(/N=N/N2CCCCC2)cc1
Reply: 6.92

Task item: Tell me pKd reported for Cc1ccc(C)n1NC(=O)CCNc1ccc(S(N)(=O)=O)cc1
Reply: 4.95

Task item: Tell me pKd reported for NS(=O)(=O)c1ccc(NCCC(=O)NNC(=S)Nc2ccccc2)cc1
Reply: 5.25

Task item: Tell me pKd reported for CC(=NNC(=O)CCNc1ccc(S(N)(=O)=O)cc1)c1ccccc1
Reply: 4.90

Task item: Tell me pKd reported for NS(=O)(=O)c1ccc(NCCc2n[nH]c(=S)n2-c2ccccc2)cc1
Reply: 5.18
